Each recorded value in this set is attributed to the supplement of paper PMC7125110.

B1: glmS ribozyme (parent)
chain: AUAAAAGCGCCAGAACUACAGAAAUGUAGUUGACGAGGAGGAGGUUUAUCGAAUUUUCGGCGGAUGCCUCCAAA

Variants of: B1
Test: self-cleavage kobs at 40 uM GlcN6P; higher = faster cleavage; RNA array
Conditions: with glucosamine-6-phosphate
Fewer inactive variants are shown than the library holds.
As shown below, each of these variants has a reported self-cleavage kobs at 40 uM GlcN6P value.

Examples with their reported self-cleavage kobs at 40 uM GlcN6P follow.
AUAAAAGGGCCAGAACUACAGAAAUGUAGUUGACGAGGGGGAGGUUUAUCGAAUUUUCCGCGGAUGCCUCCAAA [C8G A39G G59C] | < 1e-05 s⁻¹
AUAAAAGCGCUAGAACUACAGAAAUGUAGUUGACGGGGAGGAGGUUUAUGGAAUUUUCGGCGGAUGCCUCCAAA [C11U A36G C50G] | 8.31e-05 s⁻¹
AUAAAAGCGCCAGAACUACAGAAAUGUAGUUGUCGAGGAGGAGGUUUAUUGAAUUUUCGGCGGAUGCCUCCAAA [A33U C50U] | < 1e-05 s⁻¹
AUAAAAGCGCCAGAGUUACAGAAAUGUAGUUGACGAGGAGGAGGUUUAUCGUAUUUACUGCGGAUGCCUCCAAA [A15G C16U A52U U57A G59U] | < 1e-05 s⁻¹
AUAAAAGCGCCAGAACUACAGAAAUGUAGUUGACGAGGAGGAGGUUUAUCGAAUUAUCGGCGGAUGACUCCAAA [U56A C67A] | 0.000132 s⁻¹

Consider now this further variant.
Qu. GET /values?readout=self-cleavage kobs at 40 uM GlcN6P&item= AUAAAAGCGCCAGAACUACAGAAAUGUAGUUGACGAGGAGCAGGUUUAUCGAAUAUUCGGCGGAUGCCUCCAAA [G41C U55A]
Ans. < 1e-05 s⁻¹
